experiment: AUC (0 to infinity) in Sprague-Dawley rat at 100 mg/kg, po; assay type: ADME, organism-based; design: time infinity, dose 100 mg/kg, route oral; conditions: plasma
property.measured: AUC(0-inf)

Exam item: Tell me measured AUC(0-inf) for CCC(C)(C)C(=O)Nc1cc(C)c(C)c(S(=O)(=O)N2CCOCC2)c1 please.
Marked response: 4800 ng·h/mL

* * *

property.measured: log10 of Ki (log10 of the value in µM)
Form field - Quantity: Ki; Unit: µM; Scale: log10

Exam item: # lookup: UniProt:P21554 log10 of Ki, key = CCC(C)(C)C(=O)Nc1cc2c(c(S(=O)(=O)N3CCOCC3)c1)CCCC2
Sequence (P21554 whole entry): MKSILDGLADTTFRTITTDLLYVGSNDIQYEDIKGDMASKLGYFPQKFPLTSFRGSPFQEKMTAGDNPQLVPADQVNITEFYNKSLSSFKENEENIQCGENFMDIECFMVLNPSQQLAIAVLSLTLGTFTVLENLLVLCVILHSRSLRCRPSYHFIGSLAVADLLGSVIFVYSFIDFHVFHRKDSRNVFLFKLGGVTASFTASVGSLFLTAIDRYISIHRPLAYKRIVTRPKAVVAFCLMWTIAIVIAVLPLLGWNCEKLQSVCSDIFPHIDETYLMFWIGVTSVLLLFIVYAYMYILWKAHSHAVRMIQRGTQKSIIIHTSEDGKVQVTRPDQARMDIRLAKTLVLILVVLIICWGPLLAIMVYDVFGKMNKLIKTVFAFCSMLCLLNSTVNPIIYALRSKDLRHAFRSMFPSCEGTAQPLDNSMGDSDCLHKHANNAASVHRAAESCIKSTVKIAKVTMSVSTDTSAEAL
Marked response: 0.15

Exam item: Quote log10 of Ki with test system UniProt:P21554 for CCCCC(C)(C)C(=O)Nc1cc(C)c(C)c(S(=O)(=O)N2CCOCC2)c1
Marked response: -0.85

Exam item: Report log10 of Ki from UniProt:P21554 testing of CCC(C)(C)C(=O)Nc1cc(C)c(C)c(S(=O)(=O)N2CCCCCC2)c1
Marked response: 0.26

Exam item: Retrieve log10 of Ki on UniProt:P21554; query CCC(C)(C)C(=O)Nc1cc(C)c(C)c(S(=O)(=O)NCC2CC2)c1
Marked response: 0.58

Exam item: Provide log10 of Ki, system UniProt:P21554, entry CCC(C)(C)C(=O)Nc1cc(C)c(C)c(S(=O)(=O)NC2CCCC2)c1
Marked response: 0.53

Exam item: Find the measured log10 of Ki of Cc1cc(NC(=O)C(C)(C)C)cc(S(=O)(=O)N2CCOCC2)c1C with UniProt:P21554 as test system.
Marked response: 0.49

Exam item: Report measured log10 of Ki on UniProt:P21554; entry: CCCC(C)(C)C(=O)Nc1cc(C)c(C)c(S(=O)(=O)N2CCOCC2)c1
Marked response: -0.08

Exam item: Look up and report log10 of Ki, with UniProt:P21554 as system, for Cc1cc(NC(=O)C(C)(C(F)(F)F)C(F)(F)F)cc(S(=O)(=O)N2CCOCC2)c1C
Marked response: -0.11

Exam item: # return log10 of Ki for Cc1cc(NC(=O)C2C(C)(C)C2(C)C)cc(S(=O)(=O)N2CCOCC2)c1C , test system: UniProt:P21554
Marked response: 0.04

Exam item: Provide measured log10 of Ki on UniProt:P21554 for CCC(C)(C)C(=O)Nc1cc(C)c(C)c(S(=O)(=O)N2CCSC2)c1 please.
Marked response: 0.32

* * *

species on record: Homo sapiens; assay: Selectivity, ratio of Ki for human CB1 to Ki for human CB2
property.measured: Ratio Ki
Could you keep your reply to the number by itself?

Exam item: Supply measured Ratio Ki of CCC(C)(C)C(=O)Nc1cc(C)c(C)c(S(=O)(=O)N2CCSC2)c1 in your reply.
Marked response: 300

Exam item: Report Ratio Ki, nothing else, for this molecule: CCC(C)(C)C(=O)Nc1cc2c(c(S(=O)(=O)N3CCOCC3)c1)CCCC2
Marked response: 100

Exam item: Fill in reported Ratio Ki for this entry: CCC(C)(C)C(=O)Nc1cc(C)c(C)c(S(=O)(=O)NC2CCCC2)c1
Marked response: 36

Exam item: Please report the measured Ratio Ki for Cc1ccc(NC(=O)C2C(C)(C)C2(C)C)cc1S(=O)(=O)N1CCOCC1
Marked response: 150
